Target: T1, human GIP receptor (human, UniProt P48546 22-466)
T1 sequence (looked up): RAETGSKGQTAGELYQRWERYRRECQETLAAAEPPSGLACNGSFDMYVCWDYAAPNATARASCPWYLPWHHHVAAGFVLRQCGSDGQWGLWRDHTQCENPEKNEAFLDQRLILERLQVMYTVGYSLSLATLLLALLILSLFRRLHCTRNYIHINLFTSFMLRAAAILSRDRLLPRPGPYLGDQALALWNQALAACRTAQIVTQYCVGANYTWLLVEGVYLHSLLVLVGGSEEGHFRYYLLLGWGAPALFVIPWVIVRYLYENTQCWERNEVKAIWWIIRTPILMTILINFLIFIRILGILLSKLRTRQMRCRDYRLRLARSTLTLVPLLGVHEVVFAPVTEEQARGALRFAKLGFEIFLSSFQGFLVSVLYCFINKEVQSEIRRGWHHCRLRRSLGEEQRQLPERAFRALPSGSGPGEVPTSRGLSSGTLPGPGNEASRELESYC
Test: cell-based or functional assay
quantity_name: cAMP EC50 (1.0% HSA) (nM)
Give just the number in nM; leave the unit off.

binder | u | numeric_value
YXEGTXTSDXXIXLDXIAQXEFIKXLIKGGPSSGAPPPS (Y-Aib-EGT-αMeF(2F)-TSD-4Pal-αMeS-I-αMeL-LD-Orn-IAQ-Aib-EFIK((2-[2-(2-Amino-ethoxy)-ethoxy]-acetyl)2-(γ-Glu)-(10-(4-carboxyphenoxy)decanoyl))-αMeY-LIK((2-[2-(2-Amino-ethoxy)-ethoxy]-acetyl)2-(γ-Glu)-(10-(4-carboxyphenoxy)decanoyl))GGPSSGAPPPS-NH2) [Example 306] | nM | 1.12
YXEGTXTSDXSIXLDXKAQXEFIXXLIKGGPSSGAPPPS (Y-Aib-EGT-αMeF(2F)-TSD-Nle-SI-αMeL-LD-Orn-K((2-[2-(2-Amino-ethoxy)-ethoxy]-acetyl)2-(γ-Glu)-(10-(4-carboxyphenoxy)decanoyl))AQ-Aib-EFI-(D-Glu)-αMeY-LIK((2-[2-(2-Amino-ethoxy)-ethoxy]-acetyl)2-(γ-Glu)-(10-(4-carboxyphenoxy)decanoyl))GGPSSGAPPPS-NH2) [Example 328] | nM | 0.75
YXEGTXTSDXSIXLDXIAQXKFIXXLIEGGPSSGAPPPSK (Y-Aib-EGT-αMeF(2F)-TSD-4Pal-SI-αMeL-LD-Orn-IAQ-Aib-K(2-[2-(2-Amino-ethoxy)-ethoxy]-acetyl)2-(γ-Glu)-(11-(4-carboxyphenoxy)undecanoyl)FI-(D-Glu)-αMeY-LIEGGPSSGAPPPSK((2-[2-(2-Amino-ethoxy)-ethoxy]-acetyl)2-(γ-Glu)-(11-(4-carboxyphenoxy)undecanoyl)-NH2)) [Example 288] | nM | 0.48

# evaluate next
Exercise: # get_value(readout='cAMP EC50 (1.0% HSA)', item= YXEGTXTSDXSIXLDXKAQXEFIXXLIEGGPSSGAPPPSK (Y-Aib-EGT-αMeF(2F)-TSD-2Nal-SI-αMeL-LD-Orn-K((2-[2-(2-Amino-ethoxy)-ethoxy]-acetyl)2-CO-(CH2)12-CO2H)AQ-Aib-EFI-(D-Glu)-αMeY-LIEGGPSSGAPPPSK((2-[2-(2-Amino-ethoxy)-ethoxy]-acetyl)2-CO-(CH2)12-CO2H)-NH2) [Example 257] )
Key: 5.61
